The measurements presented in this section are drawn from patent US20170275270A1.

- Assay system: Bub1 (Homo sapiens, UniProt O43683)
- Sequence (O43683 whole entry): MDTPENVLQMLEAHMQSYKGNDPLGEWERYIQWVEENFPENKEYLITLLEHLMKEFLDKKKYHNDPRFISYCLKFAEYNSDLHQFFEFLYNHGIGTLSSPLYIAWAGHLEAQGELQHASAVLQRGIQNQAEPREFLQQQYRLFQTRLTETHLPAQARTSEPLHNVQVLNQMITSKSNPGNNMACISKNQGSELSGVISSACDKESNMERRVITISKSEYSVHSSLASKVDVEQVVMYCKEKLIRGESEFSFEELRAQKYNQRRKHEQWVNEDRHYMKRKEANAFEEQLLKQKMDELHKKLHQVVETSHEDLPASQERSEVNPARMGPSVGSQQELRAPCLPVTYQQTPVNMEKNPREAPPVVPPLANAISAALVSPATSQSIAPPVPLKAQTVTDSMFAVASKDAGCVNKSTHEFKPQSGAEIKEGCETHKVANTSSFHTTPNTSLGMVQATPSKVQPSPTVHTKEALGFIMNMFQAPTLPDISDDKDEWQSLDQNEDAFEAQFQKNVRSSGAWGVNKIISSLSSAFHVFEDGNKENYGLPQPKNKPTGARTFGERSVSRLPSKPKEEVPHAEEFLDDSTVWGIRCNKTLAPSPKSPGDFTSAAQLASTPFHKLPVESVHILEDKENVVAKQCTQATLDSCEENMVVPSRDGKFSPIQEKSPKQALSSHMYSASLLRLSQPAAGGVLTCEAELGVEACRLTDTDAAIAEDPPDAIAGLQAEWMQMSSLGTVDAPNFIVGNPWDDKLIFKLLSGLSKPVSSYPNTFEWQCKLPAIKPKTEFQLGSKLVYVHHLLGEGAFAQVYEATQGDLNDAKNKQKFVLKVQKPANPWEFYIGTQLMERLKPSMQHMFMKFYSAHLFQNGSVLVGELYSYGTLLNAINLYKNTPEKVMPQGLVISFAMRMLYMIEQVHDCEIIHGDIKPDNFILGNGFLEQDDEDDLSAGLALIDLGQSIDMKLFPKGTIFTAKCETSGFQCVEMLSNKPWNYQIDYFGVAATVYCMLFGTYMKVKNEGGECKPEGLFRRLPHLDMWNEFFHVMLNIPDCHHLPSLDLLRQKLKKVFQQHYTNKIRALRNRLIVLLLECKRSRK
- Test summary: Formation-Assay: phosphorylation status of histone 2A by inhibition of kinase activity of Bub1
- Type: cell-based
- Experimental setup: Biological Assay 4.1: H2A Formation IC50, co-treatment with Nocodazole 1 μg/ml, 16 h
pIC50: −log10 of the molar value.
Assign Y whenever pIC50 does not fall below 8; assign N whenever it does.

CC(=O)Nc1cc(Nc2nc(-c3nn(Cc4c(F)cc(OCCO)cc4F)c4ccccc34)nc3c2CCC3)ccn1: N

Now take the following compound into account.
Query: Identify whether the reported pIC50 of the following compound is 8 or greater: Cc1nccc(Nc2nc(-c3nn(Cc4c(F)cc(OCCO)cc4F)c4ccccc34)ncc2C2CCN(CC(F)(F)F)CC2)n1
Reply: Y

----------
- Assay system: UniProtKB O43683
- Test summary: Formation-Assay: phosphorylation status of histone 2A by inhibition of kinase activity of Bub1
- Type: cell-based
- Experimental setup: Biological Assay 4.1: H2A Formation IC50, co-treatment with Nocodazole 1 μg/ml, 16 h
- Description: Biological Assay 4.1: Formation-Assay Cell-Based Mechanistic Assay: Changes of Phosphorylation Status of Histone 2A by Inhibition of Kinase Activity of Bub1 This assay determines the suppression of histone 2A phosphorylation by a Bub1 kinase inhibitor during co-treatment with Nocodazole. 25000 cells (cells were ordered from ATCC) were seeded in 96 well plate for 5 h at 37° C. Cells were treated with Nocodazole (1 μg/ml) and varying concentrations (between 3 nM and 10 μM) of test compounds for 16 h. […]
Measurement type: pIC50
// pIC50 here means minus log10 of the molar concentration (mol/L)

Would you please look over these solved cases?
CCOc1cc(F)c(Cn2nc(-c3ncc(CN)c(Nc4ccncc4)n3)c3ccccc32)c(F)c1: 8.74
CCOc1cc(F)c(Cn2nc(-c3nc(C)c(F)c(Nc4ccnc(C(F)(F)F)c4)n3)c3ccccc32)c(F)c1: 7.42

Now consider the entry below.
Query: Which value of pIC50 has been reported for CCOc1cc(F)c(Cn2nc(-c3ncc(C4CCN(CC(F)(F)F)CC4)c(Nc4ccnc(NC(C)=O)c4)n3)c3ccccc32)c(F)c1 in the records?
Reply: 6.96

----------
- Assay system: catalytic domain of human Bub1 (amino acids 704-1085) (Homo sapiens)
- Construct: catalytic domain of human Bub1 (amino acids 704-1085); His6 (N); made in house; host or cells: Hi5 insect cells
- Test summary: Bub1 kinase assay (TR-FRET)
- Format: biochemical
- Experimental setup: Biological Assay 1: Bub1 kinase assay median IC50, 10 μM ATP
- Protocol: To this end, 100-fold concentrated compound solutions (in DMSO) were previously prepared by serial dilution (1:3.4) of 2 mM stocks in a clear low volume 384-well source microtiter plate (Greiner Bio-One, Frickenhausen, Germany), from which 50 nL of compounds were transferred into a black low volume test microtiter plate from the same supplier. […]
Measurement type: IC50 (nM)
Write the answer as a number in nM, unit excluded.

Known IC50 results, listed for orientation:
Cc1nccc(Nc2nc(-c3nn(Cc4c(F)cc(O)cc4F)c4ccccc34)nc3c2CCC3)n1: 44
COCCOc1cc(F)c(Cn2nc(-c3nc(CN4CCOCC4)cc(Nc4ccnc(C(F)F)c4)n3)c3ccccc32)c(F)c1: 57
CCOc1cc(F)c(Cn2nc(-c3nc4c(c(Nc5ccncc5C)n3)CSC4)c3ccccc32)c(F)c1: 25
CCOc1cc(F)c(Cn2nc(-c3nc(CN4CCOCC4)cc(Nc4ncncc4C)n3)c3ccccc32)c(F)c1: 3000

# context switch: different compound, same IC50
Query: Dear colleague, I am looking for the recorded IC50 of the following compound: CCOc1cc(F)c(Cn2nc(-c3nc(CN4CCOCC4)cc(Nc4ccnc(O)c4)n3)c3ccccc32)c(F)c1
Reply: 1100

----------
Overview of recorded pIC50 for various molecules
- Assay system: catalytic domain of human Bub1 (amino acids 704-1085) (Homo sapiens, UniProt O43683)
- Construct: catalytic domain of human Bub1 (amino acids 704-1085); His6 (N); made in house; host or cells: Hi5 insect cells
- Sequence (O43683 704-1085): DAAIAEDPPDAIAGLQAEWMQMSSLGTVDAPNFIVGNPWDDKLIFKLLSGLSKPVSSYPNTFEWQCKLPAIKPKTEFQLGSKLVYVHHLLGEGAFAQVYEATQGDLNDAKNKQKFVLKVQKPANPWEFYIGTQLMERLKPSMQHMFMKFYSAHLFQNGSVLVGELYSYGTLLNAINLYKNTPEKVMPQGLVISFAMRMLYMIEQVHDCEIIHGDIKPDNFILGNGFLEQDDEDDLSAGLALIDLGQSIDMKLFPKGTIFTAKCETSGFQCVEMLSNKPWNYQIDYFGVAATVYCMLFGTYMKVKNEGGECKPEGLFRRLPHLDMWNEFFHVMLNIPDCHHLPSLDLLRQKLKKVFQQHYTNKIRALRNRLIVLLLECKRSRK
- Test summary: Bub1 kinase assay (TR-FRET)
- Assay type: biochemical
- Experimental setup: Biological Assay 1: Bub1 kinase assay median IC50, 10 μM ATP
Scale note: pIC50 = -log10(concentration in M).

Some solved cases for reference:
CCOc1cc(F)c(Cn2nc(-c3ncc(CN4CC(F)(F)C4)c(Nc4ccncc4)n3)c3ccccc32)c(F)c1: 7.55
COCCOc1cc(F)c(Cn2nc(-c3nc(CN4CCOCC4)cc(Nc4ccncc4)n3)c3ccccc32)c(F)c1: 8.02
COCCOc1cc(F)c(Cn2nc(-c3ncc(C4CCNCC4)c(Nc4ccnc(C)n4)n3)c3ccccc32)c(F)c1: 7.07
CCOc1cc(F)c(Cn2nc(-c3nc(CC)cc(Nc4ccncc4)n3)c3ccccc32)c(F)c1: 7.68
CCOc1cc(F)c(Cn2nc(-c3nc4c(c(Nc5ccnc(NC(C)=O)c5)n3)CSC4)c3ccccc32)c(F)c1: 8.05
CCOc1cc(F)c(Cn2nc(-c3ncc(C4CCNCC4)c(Nc4ccncc4)n3)c3ccccc32)c(F)c1 [Example 2-17-1]: 8.21

Query: Field: pIC50 (catalytic domain of human Bub1 (amino acids 704-1085) (Homo sapiens, UniProt O43683)). Entry: CCOc1cc(F)c(Cn2nc(-c3nc(C)c(CC)c(Nc4ccncc4)n3)c3ccccc32)c(F)c1
Reply: 7.80

Query: Same thing, different molecule: CCOc1cc(F)c(Cn2nc(-c3ncc(CC4CNC4)c(Nc4cc(C)ncc4C)n3)c3ccccc32)c(F)c1
Reply: 7.36

Query: Try this molecule next: CCOc1cc(F)c(Cn2nc(-c3nc(CN4CCOCC4)cc(Nc4ccnc(OC)c4)n3)c3ccccc32)c(F)c1
Reply: 7.03

----------
- Assay system: Bub1 (Homo sapiens, UniProt O43683)
- Test summary: Formation-Assay: phosphorylation status of histone 2A by inhibition of kinase activity of Bub1
- Assay type: cell-based
- Experimental setup: Biological Assay 4.1: H2A Formation IC50, co-treatment with Nocodazole 1 μg/ml, 16 h
Label class 1 when IC50 is strictly below 10 nM; otherwise label class 0.

Examples with answers:
CCOc1cc(F)c(Cn2nc(-c3ncc(C4CCNCC4)c(Nc4ccnc(NC(C)=O)c4)n3)c3ccccc32)c(F)c1: class 1
CCOc1cc(F)c(Cn2nc(-c3nc4c(c(Nc5ccncn5)n3)CCC4)c3ccccc32)c(F)c1: class 1
OCCOc1cc(F)c(Cn2nc(-c3nc4c(c(Nc5ccncn5)n3)CCC4)c3ccccc32)c(F)c1: class 1
CCOc1cc(F)c(Cn2nc(-c3nc(CS(C)(=O)=O)cc(Nc4ccncc4)n3)c3ccccc32)c(F)c1: class 1
CCOc1cc(F)c(Cn2nc(-c3nc4c(c(Nc5cc(C)ncc5C)n3)CC(C)(C)CC4)c3ccccc32)c(F)c1: class 1

Query: Is IC50 strictly under 10 nM for the entry CCOc1cc(F)c(Cn2nc(-c3ncc(CCN)c(Nc4ccncc4)n3)c3ccccc32)c(F)c1 ?
Reply: class 0

Query: Another molecule to check: CCOc1cc(F)c(Cn2nc(-c3ncc(CN4CC(F)(F)C4)c(Nc4ccncc4)n3)c3ccccc32)c(F)c1
Reply: class 0

Query: Same thing, different molecule: CCOc1cc(F)c(Cn2nc(-c3nc4c(c(Nc5ccnc(C(F)F)c5)n3)CCC4)c3ccccc32)c(F)c1
Reply: class 0

----------
- Assay system: catalytic domain of human Bub1 (amino acids 704-1085) (Homo sapiens)
- Construct: catalytic domain of human Bub1 (amino acids 704-1085); His6 (N); made in house; host or cells: Hi5 insect cells
- Test summary: Bub1 kinase assay (TR-FRET)
- Assay type: biochemical
- Experimental setup: 10 μM ATP, read-out: Biological Assay 1: Bub1 kinase assay median IC50
- Description: To this end, 100-fold concentrated compound solutions (in DMSO) were previously prepared by serial dilution (1:3.4) of 2 mM stocks in a clear low volume 384-well source microtiter plate (Greiner Bio-One, Frickenhausen, Germany), from which 50 nL of compounds were transferred into a black low volume test microtiter plate from the same supplier. […]
Measurement type: pIC50
# pIC50 is unitless: minus log10 of the molar concentration; print number only

The following molecules have reported results that may help.
CCOc1cc(F)c(Cn2nc(-c3nc4c(c(Nc5ccnc(OC)c5)n3)CCC4)c3ccccc32)c(F)c1: 7.24
Cc1cc(Nc2ccncc2OC(F)(F)F)nc(-c2nn(Cc3c(F)cc(OCCO)cc3F)c3ccccc23)n1: 8.27
CCOc1cc(F)c(Cn2nc(-c3ncc(C4CNC4)c(Nc4ccncc4)n3)c3ccccc32)c(F)c1: 8.03
CCOc1cc(F)c(Cn2nc(-c3nc4c(c(Nc5cc(C)ncc5C)n3)CC(C)(C)CC4)c3ccccc32)c(F)c1: 7.46
CCOc1cc(F)c(Cn2nc(-c3ncc(CC(C)(C)N)c(Nc4ccncc4)n3)c3ccccc32)c(F)c1: 7.82
CCOc1cc(F)c(Cn2nc(-c3ncc(CCN)c(Nc4ccnc(C(F)(F)F)c4)n3)c3ccccc32)c(F)c1: 6.44

Query: Quick one: pIC50 of CCOc1cc(F)c(Cn2nc(-c3nc4c(c(Nc5ccnc(C(F)F)c5)n3)CCC4)c3ccccc32)c(F)c1 ?
Reply: 8.09

Query: Param item: CCOc1cc(F)c(Cn2nc(-c3nc4c(c(Nc5ccncc5C)n3)CCC4)c3ccccc32)c(F)c1
Reply: 8.10

Query: Another: CCOc1cc(F)c(Cn2nc(-c3nc(CN4CCOCC4)cc(Nc4ccnc(NC(=O)C5CC5)c4)n3)c3ccccc32)c(F)c1
Reply: 8.04

Query: And COc1cnccc1Nc1nc(-c2nn(Cc3c(F)cc(OCCO)cc3F)c3ccccc23)ncc1C1CC1 ?
Reply: 8.02

Query: Continue with CCOc1cc(F)c(Cn2nc(-c3nc4c(c(Nc5ccnc(C)c5)n3)CCC4)c3ccccc32)c(F)c1
Reply: 7.96

Query: Queued: CCOc1cc(F)c(Cn2nc(-c3ncc(CC4CNC4)c(Nc4ccnc(C(F)F)c4)n3)c3ccccc32)c(F)c1
Reply: 7.28
